TGT: Free fatty acid receptor 2 (Homo sapiens, UniProt O15552)
TEST DESCRIPTION: Agonist activity at human FFA2 receptor expressed in CHO cells assessed as inhibition of forskolin-induced cAMP production
We begin with a simple list: items and their reported log10 of IC50.
Parameter value (number): base-10 log of IC50 in µM.

[[record]]
compound = "CC(C)[C@H](C(=O)Nc1cccnn1)c1ccc(Cl)cc1"
measured = 0.36

[[record]]
compound = "CC(C)[C@H](C(=O)Nc1ncc(C(F)(F)F)s1)c1ccc(Cl)cc1"
measured = 0.18

[[record]]
compound = "CC(C)C(C(=O)Nc1ncccn1)c1ccc(Cl)cc1 (racemic)"
measured = 1.72

[[record]]
compound = "CC(C)C(C(=O)Nc1cnccn1)c1ccc(Cl)cc1 (racemic)"
measured = 0.76

[[record]]
compound = "CC(C)(C)[C@H](C(=O)Nc1ncc(C#N)s1)c1ccc(Cl)cc1"
measured = 0.18

[[record]]
compound = "CC(C)[C@H](C(=O)Nc1cccc(F)n1)c1ccc(Cl)cc1"
measured = 0.04

[[record]]
compound = "CC(C)[C@H](C(=O)NC1=NC(=O)CS1)c1ccc(Cl)cc1"
measured = 1.30

[[record]]
compound = "CC(C)[C@H](C(=O)N(C)c1nccs1)c1ccc(Cl)cc1"
measured = 1.92


Q: Fill in the recorded log10 of IC50 for this compound, with Free fatty acid receptor 2 (Homo sapiens, UniProt O15552) as test system: CC(C)[C@H](C(=O)NC1=NCCS1)c1ccc(Cl)cc1
Result: 0.32

Q: Can you look up log10 of IC50 on Free fatty acid receptor 2 (Homo sapiens, UniProt O15552) for CC(C)(C(=O)Nc1ncc(F)s1)c1ccc(Cl)cc1 ?
Result: 1.70

Q: Please tell me: log10 of IC50 of CC(C)[C@H](C(=O)Nc1ncc(Cl)s1)c1ccc(Cl)cc1 , system Free fatty acid receptor 2 (Homo sapiens, UniProt O15552)?
Result: -0.15

Q: What is its log10 of IC50 for Free fatty acid receptor 2 (Homo sapiens, UniProt O15552)? Entry: Cc1cnc(NC(=O)[C@H](c2ccc(Cl)cc2)C(C)C)s1
Result: -0.10

Q: Recall the recorded log10 of IC50 for C=CC[C@H](C(=O)Nc1nccs1)c1ccc(Cl)cc1 with Free fatty acid receptor 2 (Homo sapiens, UniProt O15552) and state it.
Result: 0.04

Q: API: value(readout= log10 of IC50, system= Free fatty acid receptor 2 (Homo sapiens, UniProt O15552), query= O=C(Nc1ncc(F)s1)[C@H](c1ccccn1)C1CC1 )
Result: 1.65

###

TGT: Free fatty acid receptor 2 (Homo sapiens) (UniProt O15552)
Sequence (whole entry): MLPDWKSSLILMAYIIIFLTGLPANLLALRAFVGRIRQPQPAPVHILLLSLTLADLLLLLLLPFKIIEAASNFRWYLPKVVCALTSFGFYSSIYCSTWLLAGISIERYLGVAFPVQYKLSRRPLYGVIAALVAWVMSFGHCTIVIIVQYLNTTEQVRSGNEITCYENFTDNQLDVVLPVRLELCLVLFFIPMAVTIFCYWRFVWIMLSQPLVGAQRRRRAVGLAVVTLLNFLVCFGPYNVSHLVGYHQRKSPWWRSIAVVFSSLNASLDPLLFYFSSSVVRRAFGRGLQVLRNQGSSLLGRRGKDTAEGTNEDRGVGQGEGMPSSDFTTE
TEST DESCRIPTION: Agonist activity at human FFA2 receptor expressed in CHO cells assessed as inhibition of forskolin-induced cAMP production relative to acetate
Assay type: functional, cell-based
Quick rule for you: Efficacy at 90% or higher means Criterion met, lower means Criterion not met.

For orientation, consider the following solved cases.
[[record]]
smi = "O=C(Nc1ncc(F)s1)C1(c2ccc(Cl)cc2)CCCCC1"
discrete_label = "Criterion not met"

[[record]]
smi = "O=C(Cc1ccc(Cl)cc1)Nc1nccs1"
discrete_label = "Criterion not met"

[[record]]
smi = "CC(C)(C)[C@H](C(=O)Nc1ncc(S(C)(=O)=O)s1)c1ccc(Cl)cc1"
discrete_label = "Criterion met"

[[record]]
smi = "COC(=O)c1cnc(NC(=O)[C@H](c2ccc(Cl)cc2)C(C)C)s1"
discrete_label = "Criterion met"


Q: Evaluate CO/C(=N\c1nccs1)[C@H](c1ccc(Cl)cc1)C(C)C : Efficacy at minimum 90%?
Result: Criterion not met

Q: Form field: Efficacy at least 90%? Entry: CC(C)(C)[C@H](C(=O)Nc1ncc(C#N)s1)c1ccc(Cl)cc1
Result: Criterion met

Q: Does the reported Efficacy for CC(C)[C@H](C(=O)NCc1ccccc1)c1ccc(Cl)cc1 fall at or above the 90% mark?
Result: Criterion not met

Q: In plain terms: is recorded Efficacy at least 90% for CC(C)[C@H](C(=O)Nc1ccncc1)c1ccc(Cl)cc1 ?
Result: Criterion not met
